MEASUREMENT DESCRIPTION: Inhibition of quorum sensing system in Pseudomonas aeruginosa MH602 PlasB::gfp at 31.25 uM incubated for 15 hrs by GFP reporter gene assay
OUTCOME MEASURE: inhibition (%)

MOL SMILES	OUTCOME MEASURE	MEASUREMENT UNITS	READOUT NUMBER
C=C1C(c2ccc(Br)cc2)=CC(=O)N1c1ccc(OC)cc1	inhibition	%	14.4
C=C1NC(=O)C=C1c1ccc(CC)cc1	inhibition	%	32.5
C=C1NC(=O)C=C1c1ccc([N+](=O)[O-])cc1	inhibition	%	51.3
C=C1C(c2ccc(Br)cc2)=CC(=O)N1c1cccc(F)c1	inhibition	%	5.8
C=C1NC(=O)C=C1c1cccc(Cl)c1	inhibition	%	26.3
C=C1C(c2ccc(Br)cc2)=CC(=O)N1c1ccsc1	inhibition	%	49.9

====

MEASUREMENT DESCRIPTION: Inhibition of quorum sensing system in Pseudomonas aeruginosa MH602 PlasB::gfp at 125 uM incubated for 15 hrs by GFP reporter gene assay
# label = class 1 if inhibition >= 60% else class 0

MOL SMILES	LABEL
C=C1C(c2ccccc2F)=CC(=O)N1c1cccc(F)c1	class 0
C=C1NC(=O)C=C1c1ccc([N+](=O)[O-])cc1	class 1
C=C1C(c2ccc(Br)cc2)=CC(=O)N1c1ccc(F)cc1	class 0
C=C1NC(=O)C=C1c1ccc(C)cc1	class 1
O=C1C=C(c2ccc(Cl)cc2)CN1	class 0
C=C1C(c2ccccc2F)=CC(=O)N1c1cccc(Br)c1	class 0
C=C1NC(=O)C=C1c1cccc(F)c1	class 1
C=C1C(c2ccccc2F)=CC(=O)N1c1ccc(C)cc1	class 1
C=C1NC(=O)C(C)=C1c1ccc(Cl)cc1	class 0
C=C1NC(=O)C(C)=C1c1cccc(C(F)(F)F)c1	class 0
O=C1C=C(c2ccc(Br)cc2)/C(=C/Br)N1	class 0
C=C1C(c2ccccc2F)=CC(=O)N1c1ccc(Cl)cc1	class 0
C=C1C(c2ccccc2F)=CC(=O)N1c1cccc(C)c1	class 0
C=C1NC(=O)C=C1c1ccccc1Cl	class 1
C=C1C(c2ccc(Br)cc2)=CC(=O)N1c1ccc(Cl)cc1	class 0
C=C1C(c2ccc(Br)cc2)=CC(=O)N1c1ccc(Br)cc1	class 0
C=C1NC(=O)C=C1c1ccc(Cl)cc1	class 1
C=C1C(c2ccccc2F)=CC(=O)N1c1cccc(Cl)c1	class 0
C=C1NC(=O)C=C1c1ccccc1F	class 1
C=C1C(c2ccccc2F)=CC(=O)N1Cc1ccccc1	class 0
C=C1C(c2ccc(Br)cc2)=CC(=O)N1c1ccsc1	class 1

====

MEASUREMENT DESCRIPTION: Inhibition of quorum sensing system in Pseudomonas aeruginosa MH602 PlasB::gfp at 31.25 uM incubated for 15 hrs by GFP reporter gene assay
# label = Met if inhibition >= 30% else Not met

MOL SMILES	LABEL
O=C1C=C(c2ccc(Br)cc2)CN1	Not met
C=C1NC(=O)C(C)=C1c1ccc(Br)cc1	Met
C=C1C(c2ccc(Br)cc2)=CC(=O)N1c1ccc(F)cc1	Not met
C=C1C(c2ccc(Br)cc2)=CC(=O)N1c1csc2ccccc12	Met
C=C1NC(=O)C(C)=C1c1ccccc1F	Not met
O=C1C=C(c2ccccc2)CN1	Met
C=C1C(c2ccc(Br)cc2)=CC(=O)N1c1ccc(C)cc1	Not met
C=C1C(c2ccc(Br)cc2)=CC(=O)N1c1ccc(S(C)(=O)=O)cc1	Not met
C=C1NC(=O)C=C1c1ccccc1Cl	Met
C=C1C(c2ccccc2F)=CC(=O)N1c1ccc(Cl)cc1	Met
C=C1NC(=O)C(C)=C1c1ccc(F)cc1	Not met
O=C1C=C(c2ccc(F)cc2)CN1	Not met
C=C1C(c2ccccc2F)=CC(=O)N1c1cccc(Cl)c1	Met
O=C1C=C(c2ccc(Br)cc2)/C(=C/Br)N1	Met
C=C1NC(=O)C=C1c1ccccc1	Not met
COc1ccc(C2=CC(=O)NC2)cc1	Not met
O=C1C=C(c2cccc(F)c2)CN1	Not met
C=C1NC(=O)C=C1c1ccc(C(=O)O)cc1	Not met
C=C1NC(=O)C=C1c1cccc(C(F)(F)F)c1	Met
C=C1C(c2ccccc2F)=CC(=O)N1Cc1ccccc1	Not met
C=C1C(c2ccccc2F)=CC(=O)N1c1cccc(F)c1	Not met
C=C1NC(=O)C=C1c1ccc(C)cc1	Met
O=C1C=C(c2ccccc2F)/C(=C/Br)N1	Met
C=C1C(c2ccccc2F)=CC(=O)N1CCCC	Met
O=C1C=C(c2ccsc2)CN1	Not met
C=C1C(c2ccc(Br)cc2)=CC(=O)N1c1ccc(Cl)cc1	Not met

====

MEASUREMENT DESCRIPTION: Inhibition of quorum sensing system in Pseudomonas aeruginosa MH602 PlasB::gfp at 62.5 uM incubated for 15 hrs by GFP reporter gene assay
OUTCOME MEASURE: inhibition (%)

MOL SMILES	MEASUREMENT UNITS	READOUT NUMBER
C=C1NC(=O)C=C1c1ccc(Cl)cc1	%	49.4
COc1ccc(C2=CC(=O)NC2)cc1	%	27.2
C=C1NC(=O)C(C)=C1c1ccc(Cl)cc1	%	33.2
O=C1C=C(c2ccccc2)/C(=C/Br)N1	%	66.6
C=C1C(c2ccc(Br)cc2)=CC(=O)N1c1cccc(F)c1	%	47.7
C=C1C(c2ccc(Br)cc2)=CC(=O)N1c1ccc(OC)cc1	%	32.1
C=C1NC(=O)C=C1c1cccc(Cl)c1	%	54.7
C=C1C(c2ccccc2F)=CC(=O)N1c1cccc(F)c1	%	41.8
C=C1C(c2ccccc2F)=CC(=O)N1Cc1ccccc1	%	47.5
C=C1NC(=O)C=C1c1ccccc1F	%	58.3
C=C1C(c2ccc(Br)cc2)=CC(=O)N1c1ccc(F)cc1	%	34.5
C=C1C(c2ccccc2F)=CC(=O)N1c1cccc(Br)c1	%	34.7
C=C1C(c2ccccc2F)=CC(=O)N1c1ccccc1	%	56.9

====

MEASUREMENT DESCRIPTION: Inhibition of quorum sensing system in Pseudomonas aeruginosa MH602 PlasB::gfp at 125 uM incubated for 15 hrs by GFP reporter gene assay

MOL SMILES	inhibition / %
C=C1NC(=O)C=C1c1ccc(OC)cc1	62.7
O=C1C=C(c2ccccc2F)/C(=C/Br)N1	81.3
C=C1NC(=O)C=C1c1cccc(C(F)(F)F)c1	67.9
O=C1C=C(c2ccccc2F)CN1	48.8
O=C1C=C(c2ccccc2)/C(=C/Br)N1	77.8
C=C1C(c2ccc(Br)cc2)=CC(=O)N1c1ccc(S(C)(=O)=O)cc1	58.1
C=C1C(c2ccc(Br)cc2)=CC(=O)N1c1cccc(F)c1	49.1
C=C1NC(=O)C=C1c1ccc(F)cc1	76.3
C=C1C(c2ccc(Br)cc2)=CC(=O)N1c1cccc(Br)c1	60.3
C=C1C(c2ccc(Br)cc2)=CC(=O)N1c1ccccc1	62
C=C1NC(=O)C(C)=C1c1ccccc1F	48.8
O=C1C=C(c2ccc(F)cc2)CN1	40.2
C=C1C(c2ccc(Br)cc2)=CC(=O)N1c1ccc(C(F)(F)F)cc1	48.4

====

MEASUREMENT DESCRIPTION: Inhibition of quorum sensing system in Pseudomonas aeruginosa MH602 PlasB::gfp at 62.5 uM incubated for 15 hrs by GFP reporter gene assay
# label = YES if inhibition >= 50% else NO

MOL SMILES	LABEL
C=C1C(c2ccc(Br)cc2)=CC(=O)N1c1ccccc1	NO
O=C1C=C(c2ccccc2)CN1	NO
C=C1NC(=O)C=C1c1ccccc1Cl	YES
C=C1C(c2ccc(Br)cc2)=CC(=O)N1c1cccc(Br)c1	NO
C=C1NC(=O)C(C)=C1c1ccc(Br)cc1	NO
O=C1C=C(c2ccsc2)CN1	NO
C=C1C(c2ccc(Br)cc2)=CC(=O)N1c1ccc(C(F)(F)F)cc1	NO
C=C1C(c2ccc(Br)cc2)=CC(=O)N1c1ccsc1	YES
C=C1NC(=O)C=C1c1ccc([N+](=O)[O-])cc1	YES
C=C1C(c2ccccc2F)=CC(=O)N1c1ccc(Cl)cc1	YES
O=C1C=C(c2ccc(F)cc2)CN1	NO
C=C1NC(=O)C=C1c1ccc(F)cc1	YES
C=C1NC(=O)C=C1c1ccc(CC)cc1	NO
C=C1NC(=O)C=C1c1ccc(C(=O)O)cc1	NO
O=C1C=C(c2ccc(Br)cc2)/C(=C/Br)N1	YES
C=C1C(c2ccc(Br)cc2)=CC(=O)N1c1ccc(Cl)cc1	NO
O=C1C=C(c2ccc(Cl)cc2)CN1	NO
C=C1NC(=O)C=C1c1ccc(Br)cc1	YES
C=C1C(c2ccccc2F)=CC(=O)N1c1cccc(C)c1	NO
C=C1NC(=O)C(C)=C1c1ccccc1F	NO
C=C1C(c2ccccc2F)=CC(=O)N1CCCC	NO
C=C1C(c2ccccc2F)=CC(=O)N1c1ccc(Br)cc1	NO
C=C1NC(=O)C(C)=C1c1cccc(C(F)(F)F)c1	NO
O=C1C=C(c2cccc(F)c2)CN1	NO
O=C1C=C(c2ccccc2F)/C(=C/Br)N1	YES
C=C1C(c2ccc(Br)cc2)=CC(=O)N1c1ccc(C)cc1	NO
